assay: LC-MS/MS detection of 4-chloro-3-methoxy phenol; type: biochemical; details: purified protein, dicamba
testReadout: 4-chloro-3-methoxy phenol product detected

[[record]]
molecule = "111 (protein, Dicamba decarboxylase variant clone DC.4.112) MAQGKVALEEHFAIPETLQDSMGFVPGDYWKELMHRLLDIQDTRLKLMDAHGIETMILSLNAPAVQAIPDRRKAIEIARRANDVLAEECAKRPDRFLAFAALPLQDPDAATEELQRCVNDLGFVGALVNGFSQEGDGQTPLYYDLPQYRPFWGEVEKLDVPFYLHPRNPLPQDSRIYDGHPWLLGPTWAFAQETAVHALRLMASGLFDEHPRLNIILGHMGEGLPYMMWRIDHRMAWIKLPPRYPAKRRFMDYFNENFHITTSGNFRTQTLIDAILEIGADRILFSTDWPFENIDHASDWFNATSIAEADRVKIGRTNARRLFKLDGA"
readoutvalue = "detected"

[[record]]
molecule = "110 (protein, Dicamba decarboxylase variant clone DC.4.111) MAQGKVALEEHFAIPETLQDSMGFVPGDYWKELMHRLLDIQDTRLKLMDAHGIETMILSLNAPAVQAIPDRRKAIEIARRANDVLAEECAKRPDRFLAFAALPLQDPDAATEELQRCVNDLGFVGALVNGFSQEGDGQTPLYYDLPQYRPFWGEVEKLDVPFYLHPRNPLPQDSRIYDGHPWLLGPTWAFAQETAVHALRLMASGLFDEHPRLNIILGHMGEGLPYMMWRIDHRMAWVKLPPRYPAKRRFMDYFNENFHITTSGNFRTQTLIDAILEIGADRILFSTDWPFENIDHASDWFNATSIAEADRVKIGRTNARRLFKLDGA"
readoutvalue = "detected"

